B1: TPD52L2 (parent)
chain: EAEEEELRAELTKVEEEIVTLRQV

variants of: B1; experiment: protein stability index of a GFP-peptide fusion (GPS, HEK-293T) (PSI 1-6); higher = more stable; details: c terminus: a fixed tail appended;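 further: lentivirally expressed fusions sorted by FACS into six bins by GFP to DsRed ratio, PSI derived from sequencing read proportions per bin multiplied by bin number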
reported.endpoint: protein stability index

[[record]]
ordered_residues = "EGEEEELRAELTKVEEEIVTLRQV [A2G]"
reported_endpoint = "protein stability index"
measured_number = 4.06

[[record]]
ordered_residues = "EAEEEELRAELTKVEEEIFTLRQV [V19F]"
reported_endpoint = "protein stability index"
measured_number = 3.27

[[record]]
ordered_residues = "EAEEEELRAEKTKVEEEIVTLRQV [L11K]"
reported_endpoint = "protein stability index"
measured_number = 5.55

[[record]]
ordered_residues = "EAEEEELRAELTKVEEEIVTLRTV [Q23T]"
reported_endpoint = "protein stability index"
measured_number = 4.06

[[record]]
ordered_residues = "EAEEEELSAELTKVEEEIVTLRQV [R8S]"
reported_endpoint = "protein stability index"
measured_number = 4.79

[[record]]
ordered_residues = "EAEEEELRAELSKVEEEIVTLRQV [T12S]"
reported_endpoint = "protein stability index"
measured_number = 3.75

[[record]]
ordered_residues = "EAEEEELRAELTLVEEEIVTLRQV [K13L]"
reported_endpoint = "protein stability index"
measured_number = 4.06

[[record]]
ordered_residues = "EAEEEELRAELEKVEEEIVTLRQV [T12E]"
reported_endpoint = "protein stability index"
measured_number = 4.22

[[record]]
ordered_residues = "EAEEEELRFELTKVEEEIVTLRQV [A9F]"
reported_endpoint = "protein stability index"
measured_number = 2.4

[[record]]
ordered_residues = "EAEEEELRAELTKVEEEHVTLRQV [I18H]"
reported_endpoint = "protein stability index"
measured_number = 5.24

[[record]]
ordered_residues = "EAEEEELRIELTKVEEEIVTLRQV [A9I]"
reported_endpoint = "protein stability index"
measured_number = 2.37


# credit: the supplement of paper PMC10567573
